tested on: MKN-45; experiment: Induction of apoptosis in human MKN45 assessed as accumulation at subG1 phase at 1 uM incubated for 7 days by flow cytometry (reference value: 10.9 +/- 3.2%); type: functional
Each item that follows carries a reported Activity.
recorded.endpoint: Activity (%)

• COc1cc(OC)cc(C2=C(c3c[nH]c4ncccc34)C(=O)NC2=O)c1 = 12.7
• COc1cc(C2=C(c3c[nH]c4ncccc34)C(=O)NC2=O)cc(OC)c1OC = 9.3
• COc1cc(C2=C(c3c[nH]c4ccncc34)C(=O)NC2=O)cc(OC)c1OC = 8.8
• COc1cc(C2=C(c3c[nH]c4cnccc34)C(=O)NC2=O)cc(OC)c1OC = 12.8

Data origin: ChEMBL document CHEMBL2177085
